Catalogue of compounds with associated pKi
- subject of test: mu opioid receptor (Rattus norvegicus, UniProt P33535)
- Sequence (P33535 whole entry): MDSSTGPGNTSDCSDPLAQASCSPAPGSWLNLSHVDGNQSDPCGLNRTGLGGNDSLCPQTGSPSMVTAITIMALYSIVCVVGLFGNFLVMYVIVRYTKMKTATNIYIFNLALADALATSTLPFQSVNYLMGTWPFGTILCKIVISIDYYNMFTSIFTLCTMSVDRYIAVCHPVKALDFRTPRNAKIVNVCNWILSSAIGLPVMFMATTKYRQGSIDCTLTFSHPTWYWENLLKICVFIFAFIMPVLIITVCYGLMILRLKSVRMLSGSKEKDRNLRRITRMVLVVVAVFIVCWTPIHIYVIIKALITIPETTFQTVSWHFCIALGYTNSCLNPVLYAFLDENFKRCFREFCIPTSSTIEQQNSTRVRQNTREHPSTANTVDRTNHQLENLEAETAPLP
- test method notes: Rat brain mu opioid receptor binding assay ([3H]DAMGO)
- applied conditions: MOR Ki, Rat mu opioid receptor binding constant; rat forebrain membranes, ~0.8 nM [3H]DAMGO
- Experimental: Rat Brain Mu Opioid Receptor Binding Assay Procedure: Male, Sprague Dawley rats (150-250 g, VAF, Charles River, Kingston, N.Y.) were killed by CO2, and their brains removed and placed immediately in ice cold Tris HCl buffer (50 mM, pH 7.4). […] Analysis: The data from the scintillation counter were used to calculate either the % inhibition compared to control binding (when only a single concentration of test compound was evaluated) or a Ki value (when a range of concentrations tested). […]
Note: pKi values are expressed as the negative base-10 logarithm of concentration in M.

CS(=O)(=O)Nc1cccc(-c2ccc3c(c2)Oc2ccccc2C3=C2CC3CCC(C2)N3)c1; 5.29
COc1cccc(-c2ccc3c(c2)Oc2ccccc2C3=C2CC3CCC(C2)N3)c1; 4.71
Nc1ccccc1-c1ccc2c(c1)Oc1ccccc1C2=C1CC2CCC(C1)N2; 5.78
O=C(c1ccc2c(c1)Oc1ccccc1C2=C1CC2CCC(C1)N2)N1CCC(O)C1 (single isomer, unassigned) [Cpd 127]; 6.04
N#Cc1ccc2c(c1)Sc1ccccc1C2=C1CC2CCC(C1)N2; 5.64
c1ccc2c(c1)Oc1cc(C3=NCCN3)ccc1C2=C1CC2CCC(C1)N2; 6.50
CS(=O)(=O)c1ccc(-c2ccc3c(c2)Oc2ccccc2C3=C2CC3CCC(C2)N3)cc1; 5.48

# next compound below
Need pKi of O=S1NC(c2ccc3c(c2)Oc2ccccc2C3=C2CC3CCC(C2)N3)=NO1 (centres unmarked) , thanks. 6.09

====

Below is a list of entries, each paired with its recorded EC50 value.
- subject of test: delta opioid receptor (NG108-15 cell membranes) (Mus musculus)
- Construct: NG108-15 cell membranes were purchased from Applied Cell Sciences (Rockville, Md.); host or cells: NG108-15 cell membranes (purchased)
- Sequence (P32300 whole entry): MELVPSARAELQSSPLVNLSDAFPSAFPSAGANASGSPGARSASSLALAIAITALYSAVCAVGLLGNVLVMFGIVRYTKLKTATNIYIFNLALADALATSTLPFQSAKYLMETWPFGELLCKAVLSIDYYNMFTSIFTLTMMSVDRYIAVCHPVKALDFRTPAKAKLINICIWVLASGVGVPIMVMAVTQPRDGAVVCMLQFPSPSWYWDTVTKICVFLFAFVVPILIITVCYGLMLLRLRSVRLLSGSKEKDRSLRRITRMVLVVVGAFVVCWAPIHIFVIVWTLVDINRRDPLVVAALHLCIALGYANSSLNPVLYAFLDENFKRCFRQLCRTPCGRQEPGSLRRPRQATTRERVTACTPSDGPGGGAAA
- test method notes: [35S]GTPγS binding assay in NG108-15 cell membranes (delta opioid)
- Assay type: biochemical
- applied conditions: DOR GTPγS EC50, NG108-15 cell membranes, agonist-stimulated [35S]GTPγS binding
The number alone won't do; follow it with the unit.

Cn1nnc(-c2ccc3c(c2)Oc2ccccc2C3=C2CC3CCC(C2)N3)n1 [Cpd 16]; 0.573 µM

// fetch delta opioid receptor (NG108-15 cell membranes) (Mus musculus) EC50 for CCN(CC)C(=N)c1ccc2c(c1)Oc1ccccc1C2=C1CC2CCC(C1)N2 [Cpd 125] 0.0783 µM

Then this compound: CC(=O)Nc1ccccc1-c1ccc2c(c1)Oc1ccccc1C2=C1CC2CCC(C1)N2 [Cpd 2] 0.394 µM

====

Each entry below lists one item and its recorded Ki value.
- subject of test: mu opioid receptor (Rattus norvegicus)
- test method notes: Rat brain mu opioid receptor binding assay ([3H]DAMGO)
- applied conditions: MOR Ki, Rat mu opioid receptor binding constant; rat forebrain membranes, ~0.8 nM [3H]DAMGO
- Method: Rat Brain Mu Opioid Receptor Binding Assay Procedure: Male, Sprague Dawley rats (150-250 g, VAF, Charles River, Kingston, N.Y.) were killed by CO2, and their brains removed and placed immediately in ice cold Tris HCl buffer (50 mM, pH 7.4). […] Analysis: The data from the scintillation counter were used to calculate either the % inhibition compared to control binding (when only a single concentration of test compound was evaluated) or a Ki value (when a range of concentrations tested). […]
Report the figure in nM without appending any unit label.

Before answering, review these 2 worked examples.
CN(C)CCN(C)C(=O)c1ccc2c(c1)Oc1ccccc1C2=C1CC2CCC(C1)N2; 28500
Cc1nc(-c2ccc3c(c2)Oc2ccccc2C3=C2CC3CCC(C2)N3)no1; 3550

Param item = Cn1nnnc1-c1ccc2c(c1)Oc1ccccc1C2=C1CC2CCC(C1)N2 ; retrieve measured Ki. 1740

Okay, and CN(CCc1ccccc1)C(=O)c1ccc2c(c1)Oc1ccccc1C2=C1CC2CCC(C1)N2 ? 37

Quick one: CC(=O)Nc1ccccc1-c1ccc2c(c1)Sc1ccccc1C2=C1CC2CCC(C1)N2 1520

And for c1cncc(-c2ccc3c(c2)Oc2ccccc2C3=C2CC3CCC(C2)N3)c1 ? 2130

Then what about the compound CC(=O)Nc1ccccc1-c1ccc2c(c1)Oc1ccccc1C2=C1CC2CCC(C1)N2 ? 1140

And then CN(CCO)C(=O)c1ccc2c(c1)Oc1ccccc1C2=C1CC2CCC(C1)N2 , what is it? 876

What do we get for CC(C)CNC(=N)c1ccc2c(c1)Oc1ccccc1C2=C1CC2CCC(C1)N2 ? 4020

Now consider CC(C)NC(=N)c1ccc2c(c1)Oc1ccccc1C2=C1CC2CCC(C1)N2 . 5170
